Target: UniProt:P00346
Sequence (P00346 whole entry): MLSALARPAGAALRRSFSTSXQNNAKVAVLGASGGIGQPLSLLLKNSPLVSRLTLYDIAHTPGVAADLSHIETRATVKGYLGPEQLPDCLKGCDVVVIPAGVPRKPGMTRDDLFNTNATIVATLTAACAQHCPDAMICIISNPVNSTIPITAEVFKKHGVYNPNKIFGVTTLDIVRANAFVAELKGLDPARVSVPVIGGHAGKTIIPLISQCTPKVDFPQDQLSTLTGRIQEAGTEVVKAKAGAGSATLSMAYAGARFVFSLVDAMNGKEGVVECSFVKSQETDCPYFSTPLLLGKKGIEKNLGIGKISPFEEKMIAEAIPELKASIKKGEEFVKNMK
pIC50: −log10 of the molar value.
MEASUREMENT_TYPE: pIC50

Below: 6 compounds and their reported pIC50.
- SMILES_STRING: "O=C(O)c1cnc2cc(OCc3ccc(Cl)c(Cl)c3)ccc2c1O"
  SYSTEM_UNDER_TEST: "UniProt:P00346"
  pIC50: 5.32
- SMILES_STRING: "O=C(O)c1cnc2cc(OCCOc3ccc(Br)cc3)ccc2c1O"
  SYSTEM_UNDER_TEST: "UniProt:P00346"
  pIC50: 5.29
- SMILES_STRING: "O=C(O)c1cnc2cc(Cl)ccc2c1O"
  SYSTEM_UNDER_TEST: "UniProt:P00346"
  pIC50: 2.44
- SMILES_STRING: "O=C(O)c1cnc2cc(O)ccc2c1O"
  SYSTEM_UNDER_TEST: "UniProt:P00346"
  pIC50: 3.31
- SMILES_STRING: "O=C(O)c1cnc2cc(OCc3ccc(Br)cc3)ccc2c1O"
  SYSTEM_UNDER_TEST: "UniProt:P00346"
  pIC50: 5.17
- SMILES_STRING: "O=C(O)c1cnc2cc(OCCc3ccc(Br)cc3)ccc2c1O"
  SYSTEM_UNDER_TEST: "UniProt:P00346"
  pIC50: 5.60

a. O=C(O)c1ccc2c(O)c(C(=O)O)cnc2c1
b. O=C(O)c1cnc2cc(OCc3ccc(F)cc3)ccc2c1O
c. O=C(O)c1cnc2cc(OCc3c(Cl)c(Cl)c(Cl)c(Cl)c3Cl)ccc2c1O
Falling order of pIC50, please. # answer = labels listed in requested order
c, b, a
(c: 5.32, b: 4.40, a: 2.97)
